TEST TARGET: Coagulation factor XI (Homo sapiens, UniProt P03951)
Sequence (P03951 19-387 limits assumed): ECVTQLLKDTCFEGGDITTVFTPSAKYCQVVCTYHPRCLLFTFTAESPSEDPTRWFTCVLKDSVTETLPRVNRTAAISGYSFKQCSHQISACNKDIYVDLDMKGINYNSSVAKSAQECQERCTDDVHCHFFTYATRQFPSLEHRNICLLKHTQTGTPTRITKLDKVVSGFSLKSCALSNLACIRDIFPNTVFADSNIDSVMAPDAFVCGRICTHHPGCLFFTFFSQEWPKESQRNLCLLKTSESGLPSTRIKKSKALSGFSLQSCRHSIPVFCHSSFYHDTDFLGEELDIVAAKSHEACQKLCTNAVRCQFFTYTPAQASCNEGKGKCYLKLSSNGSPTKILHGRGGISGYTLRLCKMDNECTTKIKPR
Sequence (P03951 388-625 limits assumed): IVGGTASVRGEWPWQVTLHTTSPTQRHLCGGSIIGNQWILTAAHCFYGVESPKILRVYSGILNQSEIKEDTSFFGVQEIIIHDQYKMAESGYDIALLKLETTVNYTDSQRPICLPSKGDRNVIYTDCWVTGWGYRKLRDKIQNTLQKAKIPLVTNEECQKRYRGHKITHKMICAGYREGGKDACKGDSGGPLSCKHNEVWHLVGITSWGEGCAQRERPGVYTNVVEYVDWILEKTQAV
ASSAY: Inhibition of human F11a using D-Leu-Pro-Arg*Rh110-D-Pro as substrate preincubated for 60 mins followed by substrate addition and measured after 60 mins by fluorescence assay
In this section, each of the compounds is paired with its reported pIC50.
Lab note — pIC50 values are minus log10 of concentrations in M.

{"COMPOUND": "COc1cccc(C(=O)O)c1OCC(O)c1cc(-c2ccc3c(c2)[C@H](N)CO3)cc(C(C)C)c1 (mixture of isomers)", "pIC50": 7.40}

Recorded result, CC(C)c1cc(-c2ccc3c(c2)[C@H](N)CO3)cc(C(O)CN2CCc3cccc(C(=O)O)c32)c1 (mixture of isomers) , pIC50: 8.70

Recorded result, "CC(C)(C(N)=O)c1cc(COc2ccccc2CC(=O)O)cc(-c2ccc3c(c2)[C@H](N)CO3)c1" , pIC50: 8.05

Recorded result, "COc1cccc(C(=O)O)c1OCCc1cc(-c2ccc3c(c2)[C@H](N)CO3)cc(C(C)C)c1" , pIC50: 8.52

Recorded result, NC1COc2ccc(C(=O)N3C[C@@H](c4ccccc4)C[C@H]3C(=O)Nc3cccc(Cl)c3)cc21 (mixture of isomers) , pIC50: 6.01

Recorded result, "CC1(C)COc2c(COc3ccccc3CC(=O)O)cc(-c3ccc4c(c3)[C@H](N)CCO4)cc21" , pIC50: 8.22

Recorded result, "CC(C)c1cc(-c2ccc3c(c2)[C@H](N)CO3)cc([C@H](O)Cn2ccc3cccc(C(=O)O)c32)c1" , pIC50: 9.40

Recorded result, "CC1(C)COc2c(COc3ccccc3CC(=O)O)cc(-c3ccc4c(c3)[C@H](N)CO4)cc21" , pIC50: 8.52

Recorded result, "CC(C)(O)c1cc(COc2ccccc2CC(=O)O)cc(-c2ccc3c(c2)[C@H](N)CO3)c1" , pIC50: 8.40

Recorded result, NC1COc2ccc(-c3cccc(COc4ccccc4CC(=O)O)c3)cc21 (racemic) , pIC50: 6.70

###

ASSAY: Volume of distribution at steady state in beagle dog at 1 mg/kg, iv by HPLC-MS/MS analysis
Assay type: ADME, organism-based, Canis lupus familiaris
CONDITIONS USED: in vivo, read-out: Vdss
PROPERTY: Vd (L/kg)
Entry rule: numbers only, all in L/kg.

Recorded result, "CC(C)c1cc(-c2ccc3c(c2)[C@H](N)CO3)cc([C@H](O)Cn2ccc3cccc(C(=O)O)c32)c1" , Vd: 0.3

###

ASSAY: AUC (0 to t) in Sprague-Dawley rat at 1 mg/kg, iv administered as bolus dose by HPLC-MS/MS analysis
Format: ADME, organism-based
CONDITIONS USED: in vivo
PROPERTY: AUC(0-t) (µM·h)
Entry rule: numbers only, all in µM·h.

Recorded result, "CC(C)c1cc(-c2ccc3c(c2)[C@H](N)CO3)cc([C@H](O)Cn2ccc3cccc(C(=O)O)c32)c1" , AUC(0-t): 3.33

###

ASSAY: Dose normalized AUC in C57BL/6 mouse at 3 mg/kg, po by LC-MS/MS analysis
Assay type: ADME, organism-based
CONDITIONS USED: in vivo
The label Satisfied is reserved for AUC/dose strictly under 7000 nM·h; Not satisfied covers values equal to or above it.

Reference set, count: 5
{"STRUCTURE NOTATION": "CC(C)c1cc(COc2ccccc2CC(=O)O)cc(-c2ccc3c(c2)[C@H](N)CO3)c1", "ASSIGNED CATEGORY": "Not satisfied"}
{"STRUCTURE NOTATION": "CC(C)(C#N)c1cc(COc2ccccc2CC(=O)O)cc(-c2ccc3c(c2)[C@H](N)CO3)c1", "ASSIGNED CATEGORY": "Satisfied"}
{"STRUCTURE NOTATION": "CC(C)c1cc(-c2ccc3c(c2)[C@H](N)CO3)cc([C@H](O)Cn2ccc3cccc(C(=O)O)c32)c1", "ASSIGNED CATEGORY": "Satisfied"}
{"STRUCTURE NOTATION": "CC(C)(O)c1cc(COc2ccccc2CC(=O)O)cc(-c2ccc3c(c2)[C@H](N)CO3)c1", "ASSIGNED CATEGORY": "Satisfied"}
{"STRUCTURE NOTATION": "CC1(C)COc2c(COc3ccccc3CC(=O)O)cc(-c3ccc4c(c3)[C@H](N)CO4)cc21", "ASSIGNED CATEGORY": "Satisfied"}

API: the following record is the query input.
Given the entry "CC(C)c1cc(CCN2CCc3cccc(C(=O)O)c32)cc(-c2ccc3c(c2)[C@H](N)CO3)c1" , would its reported AUC/dose be below 7000 nM·h?
Not satisfied
